Molecular target: T1, 4H3915-AA
T1 chain: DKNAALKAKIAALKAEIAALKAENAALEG
Assay: two-hybrid library CCmax;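 also: natural log of median RNA to DNA barcode read ratio; higher means stronger binding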
Details: mean of both orientations
# interaction score values compiled below
measurement type: interaction score

{"columns": ["binder", "quantitative readout"],
 "data": [
  ["DKNAALEAKIAALKAKNAALKAEIAALEG [4H3449-AA]", -1.74],
  ["DKNAALKAEIAALEAKIAALEAENAALEG [4H3619-AA]", -0.429],
  ["DKNAALKAEIAALEAKIAALKAKIAALEG [4H3629-AA]", -0.761],
  ["DKIAALKAKNAALEAEIAALEAENAALEG [4H2947-AA]", -1.59],
  ["DENAALEAKNAALEAKIAALKAEIAALEG [4H1449-AA]", -1.06],
  ["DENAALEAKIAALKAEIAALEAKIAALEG [4H1349-AA]", 0.312],
  ["DEIAALEAKIAALKAKNAALKAENAALKG [4H380-AA]", 0.315]
]}

Ref: paper PMC10397247
